Entry source: patent US20260226068A1

Molecular target: IL-17A/A (Homo sapiens, UniProt Q16552)
Construct: purchased Genscript Z03228
Sequence (Q16552 24-155): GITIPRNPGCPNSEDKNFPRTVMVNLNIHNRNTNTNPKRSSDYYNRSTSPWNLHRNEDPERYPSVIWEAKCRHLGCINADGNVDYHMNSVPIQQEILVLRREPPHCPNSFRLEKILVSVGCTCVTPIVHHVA
Experiment: IL-17A/A HEK-Blue cell assay (SEAP reporter)
Format: cell-based
Settings: HEK-Blue IL-17A reporter cells, IL17A/A 5 ng/mL, 20 hours, SEAP read at A630; read-out: HEK-Blue IL17AA (IC50 for IL-17A/A inhibition)
IC50 reference

Here is how some compounds turned out for IC50.
compound="CCn1nccc1C(=O)N[C@H](c1cn2nc(C[C@H]3C[C@@H](C(F)(F)F)CNC3=O)c([C@H]3CCCCN3)nc2n1)C1CCC(F)(F)CC1 (single isomer, unassigned)" test_value="100 to 1000 nM"
compound="CCn1nccc1C(=O)N[C@H](c1cn2nc(C[C@@H]3CC(F)(F)CNC3=O)cnc2n1)C1CCC(F)(F)CC1 (single isomer, unassigned)" test_value="100 to 1000 nM"
compound="CCn1nccc1C(=O)N[C@H](c1cn2nc(C[C@H]3C[C@@H](C(F)(F)F)CNC3=O)c(C3CCOC(C)(C)C3)nc2n1)C1CCC(F)(F)CC1 (single isomer, unassigned) [Compound 163]" test_value="< 100 nM"
compound="CCn1nccc1C(=O)N[C@H](c1cn2nc(CC3C[C@@H](C(F)(F)F)CNC3=O)c(N3CCO[C@@H](C)C3)nc2n1)[C@@H]1CCCC(F)(F)C1 (single isomer, unassigned) [Compound 208]" test_value="< 100 nM"

--- query ---
Ask: Given the entry C[C@H]1CC[C@H]([C@H](NC(=O)C2(F)CC2)c2cn3nc(CC4C[C@@H](C(F)(F)F)CNC4=O)c(N4CCOCC4)nc3n2)CC1 (single isomer, unassigned) [Compound 120] , report its measured IC50.
Result: 100 to 1000 nM
